protocol.text: Identification of antibody-drug conjugate (ADC) payloads which are substrates of ATP-binding cassette drug efflux transporters: ABCB1-HEK293-MDR-19 cell line
run.conditions: HEK293 ABCB1 (MDR-19) viability, CellTiter-Glo, 48 h
Source text: Antibody-drug conjugates (ADCs) feature an antibody recognizing a specific protein joined to a potent toxic payload. Numerous antibody-drug conjugates have received FDA approval; however, clinical resistance arises. Resistance mechanisms include decreased expression or mutation of the antibody target, impaired payload release, or increased expression of ATP-binding cassette (ABC) efflux transporters associated with multidrug resistance. […]
Inconclusive results are not listed. Calls of active or inactive are those of the source. Calls come from the whole dose curve; as a rule, active = well fitted inhibition curve with a large enough effect; inconclusive = small, poorly fitted or top-dose-only effect; inactive = flat fitted curve, though single readings scatter.
measured.parameter: Potency

Past entries and their recorded results:
Prompt line: Which value of Potency has been reported for COc1cc2cc(C(=O)N3C[C@@H](CCl)c4c3cc(O)c3ccccc43)[nH]c2c(OC)c1OC in the records?
Response line: 1.2 nM (active)

Prompt line: Field entry: COc1cccc2c1C(=O)c1c(O)c3c(c(O)c1C2=O)C[C@@](O)(C(=O)CO)CC3OC1CC(N2CCOC(OC)C2)C(O)C(C)O1 (stereo not given in full)
Response line: 1.7 nM (active)

Prompt line: Would you mind doing CC[C@@]1(O)C(=O)OCc2c1cc1n(c2=O)Cc2cc3ccccc3nc2-1 as well?
Response line: 13.3 nM (active)

Parameters: items (list). Returns: Potency for each item.
1. COc1cc2cc(c1Cl)N(C)C(=O)C[C@H](OC(=O)C(C)C)[C@]1(C)O[C@H]1[C@H](C)[C@@H]1C[C@@](O)(NC(=O)O1)[C@H](OC)C=CC=C(C)C2
2. COc1cc2cc(c1Cl)N(C)C(=O)C[C@H](OC(=O)[C@H](C)N(C)C(=O)CCS)[C@]1(C)OC1[C@H](C)C1C[C@@](O)(NC(=O)O1)[C@H](OC)/C=C/C=C(\C)C2 (stereo not given in full)

Response line:
1. 14.9 nM (active)
2. 298 nM (active)
